# measurement parameters: in n-butyl acetate, 308.15 K
quantity kind: solubility (mole fraction)
Field format: numeric only.

# input Endpoint output: solubility (mole fraction) of Cc1c(C(=O)O)cccc1[N+](=O)[O-] . Value?
# output 0.039

###

# measurement parameters: in ethanol, 303.15 K
quantity kind: solubility (mole fraction)

# input Endpoint output: solubility (mole fraction) of Cc1c(C(=O)O)cccc1[N+](=O)[O-] . Value?
# output 0.0349

###

# measurement parameters: in ethanol, 278.15 K
quantity kind: solubility (mole fraction)
Field format: numeric only.

# input Endpoint output: solubility (mole fraction) of Cc1c(C(=O)O)cccc1[N+](=O)[O-] . Value?
# output 0.0152

###

# measurement parameters: in n-propanol, 283.15 K
quantity kind: solubility (mole fraction)
Field format: numeric only.

# input Endpoint output: solubility (mole fraction) of Cc1c(C(=O)O)cccc1[N+](=O)[O-] . Value?
# output 0.019

###

# measurement parameters: in n-butyl acetate, 288.15 K
quantity kind: solubility (mole fraction)
Field format: numeric only.

# input Endpoint output: solubility (mole fraction) of Cc1c(C(=O)O)cccc1[N+](=O)[O-] . Value?
# output 0.0227

###

# measurement parameters: in methanol, 283.15 K
quantity kind: solubility (mole fraction)
Field format: numeric only.

# input Endpoint output: solubility (mole fraction) of Cc1c(C(=O)O)cccc1[N+](=O)[O-] . Value?
# output 0.016

###

# measurement parameters: in isopropanol, 293.15 K
quantity kind: solubility (mole fraction)

# input Endpoint output: solubility (mole fraction) of Cc1c(C(=O)O)cccc1[N+](=O)[O-] . Value?
# output 0.0224

###

# measurement parameters: in isopropyl acetate, 293.15 K
quantity kind: solubility (mole fraction)
Field format: numeric only.

# input Endpoint output: solubility (mole fraction) of Cc1c(C(=O)O)cccc1[N+](=O)[O-] . Value?
# output 0.023

###

# measurement parameters: in ethanol, 313.15 K
quantity kind: solubility (mole fraction)
Field format: numeric only.

# input Endpoint output: solubility (mole fraction) of Cc1c(C(=O)O)cccc1[N+](=O)[O-] . Value?
# output 0.0478

###

# measurement parameters: in methyl acetate, 278.15 K
quantity kind: solubility (mole fraction)
Field format: numeric only.

# input Endpoint output: solubility (mole fraction) of Cc1c(C(=O)O)cccc1[N+](=O)[O-] . Value?
# output 0.0265

###

# measurement parameters: in isobutanol, 308.15 K
quantity kind: solubility (mole fraction)
Field format: numeric only.

# input Endpoint output: solubility (mole fraction) of Cc1c(C(=O)O)cccc1[N+](=O)[O-] . Value?
# output 0.028

###

# measurement parameters: in methanol, 313.15 K
quantity kind: solubility (mole fraction)
Field format: numeric only.

# input Endpoint output: solubility (mole fraction) of Cc1c(C(=O)O)cccc1[N+](=O)[O-] . Value?
# output 0.0424

###

# measurement parameters: in n-butanol, 313.15 K
quantity kind: solubility (mole fraction)
Field format: numeric only.

# input Endpoint output: solubility (mole fraction) of Cc1c(C(=O)O)cccc1[N+](=O)[O-] . Value?
# output 0.0608

###

# measurement parameters: in methyl acetate, 288.15 K
quantity kind: solubility (mole fraction)
Field format: numeric only.

# input Endpoint output: solubility (mole fraction) of Cc1c(C(=O)O)cccc1[N+](=O)[O-] . Value?
# output 0.0338

###

# measurement parameters: in isobutanol, 303.15 K
quantity kind: solubility (mole fraction)
Field format: numeric only.

# input Endpoint output: solubility (mole fraction) of Cc1c(C(=O)O)cccc1[N+](=O)[O-] . Value?
# output 0.024

###

# measurement parameters: in DMF, 278.15 K
quantity kind: solubility (mole fraction)
Field format: numeric only.

# input Endpoint output: solubility (mole fraction) of Cc1c(C(=O)O)cccc1[N+](=O)[O-] . Value?
# output 0.147

###

# measurement parameters: in n-butanol, 278.15 K
quantity kind: solubility (mole fraction)
Field format: numeric only.

# input Endpoint output: solubility (mole fraction) of Cc1c(C(=O)O)cccc1[N+](=O)[O-] . Value?
# output 0.0178

###

# measurement parameters: in methyl acetate, 298.15 K
quantity kind: solubility (mole fraction)
Field format: numeric only.

# input Endpoint output: solubility (mole fraction) of Cc1c(C(=O)O)cccc1[N+](=O)[O-] . Value?
# output 0.0428

###

# measurement parameters: in n-propyl acetate, 283.15 K
quantity kind: solubility (mole fraction)
Field format: numeric only.

# input Endpoint output: solubility (mole fraction) of Cc1c(C(=O)O)cccc1[N+](=O)[O-] . Value?
# output 0.0221

###

# measurement parameters: in methanol, 278.15 K
quantity kind: solubility (mole fraction)
Field format: numeric only.

# input Endpoint output: solubility (mole fraction) of Cc1c(C(=O)O)cccc1[N+](=O)[O-] . Value?
# output 0.0136

###

# measurement parameters: in methanol, 288.15 K
quantity kind: solubility (mole fraction)
Field format: numeric only.

# input Endpoint output: solubility (mole fraction) of Cc1c(C(=O)O)cccc1[N+](=O)[O-] . Value?
# output 0.0193

###

# measurement parameters: in n-butanol, 303.15 K
quantity kind: solubility (mole fraction)
Field format: numeric only.

# input Endpoint output: solubility (mole fraction) of Cc1c(C(=O)O)cccc1[N+](=O)[O-] . Value?
# output 0.0434

###

# measurement parameters: in ethyl acetate, 313.15 K
quantity kind: solubility (mole fraction)
Field format: numeric only.

# input Endpoint output: solubility (mole fraction) of Cc1c(C(=O)O)cccc1[N+](=O)[O-] . Value?
# output 0.0538

###

# measurement parameters: in isobutanol, 278.15 K
quantity kind: solubility (mole fraction)
Field format: numeric only.

# input Endpoint output: solubility (mole fraction) of Cc1c(C(=O)O)cccc1[N+](=O)[O-] . Value?
# output 0.00938

###

# measurement parameters: in 1,4-dioxane, 308.15 K
quantity kind: solubility (mole fraction)
Field format: numeric only.

# input Endpoint output: solubility (mole fraction) of Cc1c(C(=O)O)cccc1[N+](=O)[O-] . Value?
# output 0.132

###

# measurement parameters: in acetonitrile, 308.15 K
quantity kind: solubility (mole fraction)
Field format: numeric only.

# input Endpoint output: solubility (mole fraction) of Cc1c(C(=O)O)cccc1[N+](=O)[O-] . Value?
# output 0.0122

###

# measurement parameters: in n-propyl acetate, 298.15 K
quantity kind: solubility (mole fraction)
Field format: numeric only.

# input Endpoint output: solubility (mole fraction) of Cc1c(C(=O)O)cccc1[N+](=O)[O-] . Value?
# output 0.0335

###

# measurement parameters: in methyl acetate, 313.15 K
quantity kind: solubility (mole fraction)
Field format: numeric only.

# input Endpoint output: solubility (mole fraction) of Cc1c(C(=O)O)cccc1[N+](=O)[O-] . Value?
# output 0.06

###

# measurement parameters: in isopropanol, 298.15 K
quantity kind: solubility (mole fraction)
Field format: numeric only.

# input Endpoint output: solubility (mole fraction) of Cc1c(C(=O)O)cccc1[N+](=O)[O-] . Value?
# output 0.0266

###

# measurement parameters: in isobutanol, 313.15 K
quantity kind: solubility (mole fraction)
Field format: numeric only.

# input Endpoint output: solubility (mole fraction) of Cc1c(C(=O)O)cccc1[N+](=O)[O-] . Value?
# output 0.033

###

# measurement parameters: in isobutanol, 283.15 K
quantity kind: solubility (mole fraction)
Field format: numeric only.

# input Endpoint output: solubility (mole fraction) of Cc1c(C(=O)O)cccc1[N+](=O)[O-] . Value?
# output 0.0114

###

# measurement parameters: in ethyl acetate, 303.15 K
quantity kind: solubility (mole fraction)
Field format: numeric only.

# input Endpoint output: solubility (mole fraction) of Cc1c(C(=O)O)cccc1[N+](=O)[O-] . Value?
# output 0.0426

###

# measurement parameters: in isopropanol, 278.15 K
quantity kind: solubility (mole fraction)

# input Endpoint output: solubility (mole fraction) of Cc1c(C(=O)O)cccc1[N+](=O)[O-] . Value?
# output 0.0133

###

# measurement parameters: in ethanol, 283.15 K
quantity kind: solubility (mole fraction)
Field format: numeric only.

# input Endpoint output: solubility (mole fraction) of Cc1c(C(=O)O)cccc1[N+](=O)[O-] . Value?
# output 0.0181

###

# measurement parameters: in methyl acetate, 308.15 K
quantity kind: solubility (mole fraction)
Field format: numeric only.

# input Endpoint output: solubility (mole fraction) of Cc1c(C(=O)O)cccc1[N+](=O)[O-] . Value?
# output 0.0539

###

# measurement parameters: in ethyl acetate, 278.15 K
quantity kind: solubility (mole fraction)
Field format: numeric only.

# input Endpoint output: solubility (mole fraction) of Cc1c(C(=O)O)cccc1[N+](=O)[O-] . Value?
# output 0.0228

###

# measurement parameters: in n-butyl acetate, 298.15 K
quantity kind: solubility (mole fraction)
Field format: numeric only.

# input Endpoint output: solubility (mole fraction) of Cc1c(C(=O)O)cccc1[N+](=O)[O-] . Value?
# output 0.0296

###

# measurement parameters: in n-butyl acetate, 303.15 K
quantity kind: solubility (mole fraction)
Field format: numeric only.

# input Endpoint output: solubility (mole fraction) of Cc1c(C(=O)O)cccc1[N+](=O)[O-] . Value?
# output 0.034
